molecular target: KRasG12C (M1-K169, biotinylated on the N-terminus) (Homo sapiens (Human), UniProt P01116, G12C); assay: Covalent competition assay: scintillation proximity assay (SPA) quantifying covalent modification of KRASG12C; conditions: competition with radiolabeled covalent probe (Compound B/Compound A), 2 hours incubation, 10 nM KRasG12C
pIC50: −log10 of the molar value.
Reported Endpoint: pIC50

Worked set:
1) C=CC(=O)N1CC2(CC(n3nc(N4CCN(C)CC45CCC5)c(-c4c(Cl)c(C)cc5[nH]ncc45)c3C)C2)C1 (single isomer, unassigned) [Example 55b] ... 7.47
2) C=CC(=O)N1CC2(CCC(n3nc(N4CCN(C(C)=O)CC4)c(-c4c(Cl)ccc5[nH]ncc45)c3C)C2)C1 (single isomer, unassigned) [Example 53d] ... 5.04
3) C=CC(=O)N1CC2(CC(n3nc(N4CCC(N(CC)C5COC5)CC4(C)C)c(-c4c(Cl)c(Cl)cc5[nH]ncc45)c3C)C2)C1 (single isomer, unassigned) [Example 61b] ... 8.22
4) C=CC(=O)N1CC2(CC(n3nc(N4CCC(N(CC)C5COC5)CC4(C)C)c(-c4c(Cl)c(C)cc5[nH]ncc45)c3C)C2)C1 (single isomer, unassigned) [Example 48a] ... 6.53
5) C=CC(=O)N1CC2(CC(n3nc(N4C5CCC4CN(C(C)=O)C5)c(-c4c(Cl)c(C)cc5[nH]ncc45)c3C)C2)C1 (single isomer, unassigned) [Example 57a] ... 4.46
6) C=CC(=O)N1CC2(CC(n3nc(N4CCC(CN5CC6COCC6C5)CC4(C)C)c(-c4c(Cl)c(Cl)cc5[nH]ncc45)c3C)C2)C1 (single isomer, unassigned) [Example 227a] ... 5.31
7) C=CC(=O)N1CC2(CC(n3nc(N4CC[C@@H](CN5CCCN(C(C)=O)CC5)CC4(C)C)c(-c4c(Cl)c(Cl)cc5[nH]ncc45)c3C)C2)C1 (single isomer, unassigned) [Example 315a] ... 5.70
8) C=CC(=O)N1CC2(CC(n3nc(N4CCC5(CN(C6COC6)C5)CC4(C)C)c(-c4c(Cl)c(C)cc5[nH]ncc45)c3C)C2)C1 (single isomer, unassigned) [Example 91b] ... 7.89

(A) C=CC(=O)N1CC2(CC(n3nc(N4CC[C@@H](CN5CCC6COCC65)CC4(C)C)c(-c4c(C)c(Cl)cc5[nH]ncc45)c3C)C2)C1 (single isomer, unassigned) [Example 305b]
(B) C=CC(=O)N1CC2(CC(n3nc(N4CC[C@@H](CN5CCOC6(C5)CN(C(C)=O)C6)CC4(C)C)c(-c4c(Cl)c(Cl)cc5[nH]ncc45)c3C)C2)C1 (single isomer, unassigned) [Example 311a]
Which gives the smaller pIC50 number: A or B ? Which one? Tell me its label. B
(B: 5.89, A: 7.72)

====

target: KRasG12C (M1-K169, biotinylated on the N-terminus) (Homo sapiens (Human), UniProt P01116, G12C); assay: Covalent competition assay: scintillation proximity assay (SPA) quantifying covalent modification of KRASG12C; conditions: competition with radiolabeled covalent probe (Compound B/Compound A), 2 hours incubation, 10 nM KRasG12C
pIC50: −log10 of the molar value.
Reported Endpoint: pIC50

1. C=CC(=O)N1CC2(CC(n3nc(N4CCC(N5CCOCC5)CC4(C)C)c(-c4c(Cl)c(C)cc5[nH]ncc45)c3C)C2)C1 (single isomer, unassigned) [Example 35b] ... 5.82

(A) C=CC(=O)N1CC2(CC(n3nc(N4CC[C@@H](CN5CC6CCC(C5)O6)CC4(C)C)c(-c4c(Cl)c(Cl)cc5[nH]ncc45)c3C)C2)C1 (single isomer, unassigned) [Example 314a]
(B) C=CC(=O)N1CC2(CC(n3nc(N4CC[C@@H](CN5CCN(C6COC6)CC5)CC4(C)C)c(-c4c(Cl)c(Cl)cc5[nH]ncc45)c3C)C2)C1 (single isomer, unassigned) [Example 243b]
(C) C=CC(=O)N1CC2(CC(n3nc(N4CCN(CCOC(F)F)CC45CCC5)c(-c4c(Cl)c(C)cc5[nH]ncc45)c3C)C2)C1 (single isomer, unassigned) [Example 183b]
Descending sort on pIC50 required. Give me the labels in the order the question wants. B, C, A
